B1: ZC3H15 (parent)
chain: ENLFTGEDLDELEEELNTLDLEE

- Variants of: B1
- protocol: protein stability index of a GFP-peptide fusion (GPS, HEK-293T) (PSI 1-6); higher = more stable;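 note: lentivirally expressed fusions sorted by FACS into six bins by GFP to DsRed ratio, PSI derived from sequencing read proportions per bin multiplied by bin number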
- run_parameters: c terminus: native
Listing of entries alongside the reported protein stability index.
Lab note: write the figure by itself, no unit.

D20V : 4.99
L19P : 4.67

GET /values?readout=protein stability index&item= N17Q 4.06

Further, for L12N ? 4.38

Further, for G6Q ? 4.41

Further, for L16M ? 4.78

Further, for T18C ? 4.8

Further, for N17K ? 5.18

Further, for G6A ? 4.82

Further, for L3D ? 5.09

Further, for N17V ? 3.5

Further, for E7F ? 4.42

Further, for E15M ? 3.88

Further, for L21K ? 2.71

Further, for N17W ? 2.69

Further, for T18R ? 4.26

Further, for E14H ? 5.05

Further, for L21A ? 2.44

Further, for E7I ? 4.49

Further, for E7S ? 5

Further, for E11Q ? 4.89

Further, for D10N ? 5.33
